# Experimental Protocol: Solubility of tetrahydrate Form S3 in different solvents
# Assay type: physicochemical
# Condition Summary: solvent H2O/Acetonitrile (1:1)
Test Readout: solubility (mg/mL)
Numbers only, in mg/mL.

[ask] So what's the measured solubility for this one? CC(C)[C@H]1C(=O)N[C@@H](CCCN=C(N)N)C(=O)NCC(=O)N[C@@H](CC(=O)O)C(=O)N[C@H](Cc2ccccc2)C(=O)N1C [crystalline form S3, cyclo-(Arg-Gly-Asp-DPhe-NMe-Val)]
[reply] 24.3

* * *

# Experimental Protocol: Solubility of tetrahydrate Form S3 in different solvents
# Type: physicochemical
# Condition Summary: solvent buffer pH 7.4
Test Readout: solubility (mg/mL)
Give bare numbers, in mg/mL.

[ask] So what's the measured solubility for this one? CC(C)[C@H]1C(=O)N[C@@H](CCCN=C(N)N)C(=O)NCC(=O)N[C@@H](CC(=O)O)C(=O)N[C@H](Cc2ccccc2)C(=O)N1C [crystalline form S3, cyclo-(Arg-Gly-Asp-DPhe-NMe-Val)]
[reply] 24.4
